I'd be grateful if you could share measured inhibition at 0.1 µM for these entries.
- Subject Of Test: recombinant human 17β-HSD1 (Homo sapiens, UniProt P14061)
- Construct: made in house; host or cells: Sd9 (Sf9) insect cells, baculovirus (Bac to Bac Expression System)
- Protocol Details: Inhibition of recombinant human 17β-HSD1
- Format: biochemical
- Measurement Conditions: inhibitor 100 nM; 30 nM estrone, 1 mM NADPH, 30 min RT
Give the quantity in %, number only.

I'd like to know its inhibition at 0.1 µM. The compound in question is Cc1cc(NC(=O)CC[C@@H]2C/C(=N\O)[C@@]3(C)CCC4c5cccc(F)c5CCC4C23)no1 (stereo partly shown) 83

Also need Cc1cnc(NC(=O)CC[C@@H]2C/C(=N\O)[C@@]3(C)CCC4c5ccc(Cl)cc5CCC4C23)o1 (stereo partly shown) , thanks. 26

Further, for CN(C)C(=O)CC[C@@H]1C/C(=N\O)[C@@]2(C)CCC3c4cccc(F)c4CCC3C12 (stereo partly shown) ? 57

# iterate: C[C@]12CCC3c4cccc(F)c4CCC3C1[C@H](CCC(=O)Nc1ccc(N3CCOCC3)cn1)C/C2=N\O (stereo partly shown) 100

Cc1cccnc1NC(=O)CC[C@@H]1C/C(=N\O)[C@@]2(C)CCC3c4ccc(Cl)cc4CCC3C12 (stereo partly shown) ? 38

Also need C[C@]12CCC3c4ccccc4CCC3C1[C@H](CCC(=O)Nc1cccnn1)C/C2=N\O (stereo partly shown) , thanks. 17

Proceed to CC(C)c1ccc(NC(=O)CC[C@@H]2C/C(=N\O)[C@@]3(C)CCC4c5ccccc5CCC4C23)nc1 (stereo partly shown) 84

====

I'd be grateful if you could share measured inhibition at 0.1 µM for these entries.
- Subject Of Test: recombinant human 17β-HSD1 (Homo sapiens, UniProt P14061)
- Construct: made in house; host or cells: Sd9 (Sf9) insect cells, baculovirus (Bac to Bac Expression System)
- Sequence (P14061 1-328): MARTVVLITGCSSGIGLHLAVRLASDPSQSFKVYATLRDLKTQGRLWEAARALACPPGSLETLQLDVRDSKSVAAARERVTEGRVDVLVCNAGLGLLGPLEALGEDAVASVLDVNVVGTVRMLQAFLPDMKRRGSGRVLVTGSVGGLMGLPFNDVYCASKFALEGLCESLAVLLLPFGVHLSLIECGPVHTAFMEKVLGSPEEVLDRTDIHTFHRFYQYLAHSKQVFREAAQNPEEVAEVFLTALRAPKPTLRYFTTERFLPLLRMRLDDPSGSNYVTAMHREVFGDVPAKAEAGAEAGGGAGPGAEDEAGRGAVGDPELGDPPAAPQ
- Protocol Details: Inhibition of recombinant human 17β-HSD1
- Assay type: biochemical
- Measurement Conditions: inhibitor 100 nM; 30 nM estrone, 1 mM NADPH, 30 min RT
// return numeric value only (unit: %, not printed)

What value of inhibition at 0.1 µM has been recorded for this entry: C[C@]12CCC3c4cccc(F)c4CCC3C1[C@H](CCC(=O)Nc1cccc(F)n1)C/C2=N\O (stereo partly shown) 74

Next compound up: Cc1ccc(NC(=O)CC[C@@H]2C/C(=N\O)[C@@]3(C)CCC4c5ccc(Cl)cc5CCC4C23)nn1 (stereo partly shown) 33

Now the compound C[C@]12CCC3c4ccc(Cl)cc4CCC3C1[C@H](CCC(=O)Nc1ncc(F)cc1F)C/C2=N\O (stereo partly shown) 40

Next entry: C[C@]12CCC3c4cccc(F)c4CCC3C1[C@H](CCC(=O)N1CCCC1)C/C2=N\O (stereo partly shown) 53

Repeat for the following compound: COc1ccc(NC(=O)CC[C@@H]2C/C(=N\O)[C@@]3(C)CCC4c5cccc(F)c5CCC4C23)nc1 (stereo partly shown) 92

Same thing, different compound: CN1CCN(c2ccc(NC(=O)CC[C@@H]3C/C(=N\O)[C@@]4(C)CCC5c6ccccc6CCC5C34)nc2)CC1 (stereo partly shown) 61

Another compound: C[C@]12CCC3c4ccccc4CCC3C1[C@H](CCC(=O)Nc1ccc(N3CCOCC3)cn1)C/C2=N\O (stereo partly shown) 82

====

- Subject Of Test: recombinant human 17β-HSD2 (Homo sapiens, UniProt P37059)
- Construct: made in house; host or cells: Sd9 (Sf9) insect cells, baculovirus (Bac to Bac Expression System)
- Sequence (P37059 1-387): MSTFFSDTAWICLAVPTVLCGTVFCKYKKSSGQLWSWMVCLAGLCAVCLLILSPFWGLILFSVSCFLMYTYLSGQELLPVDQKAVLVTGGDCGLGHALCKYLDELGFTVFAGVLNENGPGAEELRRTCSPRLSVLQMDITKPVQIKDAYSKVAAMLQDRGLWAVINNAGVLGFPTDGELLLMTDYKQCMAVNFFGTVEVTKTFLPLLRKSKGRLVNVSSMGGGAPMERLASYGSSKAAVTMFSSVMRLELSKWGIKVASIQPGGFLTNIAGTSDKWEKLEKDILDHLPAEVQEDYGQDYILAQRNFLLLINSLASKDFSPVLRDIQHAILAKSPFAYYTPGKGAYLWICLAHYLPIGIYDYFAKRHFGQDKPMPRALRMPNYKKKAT
- Protocol Details: Inhibition of recombinant human 17β-HSD2
- Type: biochemical
- Measurement Conditions: inhibitor 1 μM; 50 nM estradiol, 1 mM NADH, 30 min RT
Param threshold (10%) applies to inhibition at 1 µM; output 1 when value >= threshold, -1 when value < threshold.

Check this molecule for inhibition at 1 µM at or above 10%: C[C@]12CCC3c4ccccc4CCC3C1[C@H](CCC(=O)Nc1cc(F)ccn1)C/C2=N\O (stereo partly shown) -1

Continue with C[C@]12CCC3c4ccc(Cl)cc4CCC3C1[C@H](CCC(=O)N1CCC3(CCOCC3)C1)C/C2=N\O (stereo partly shown) -1

CCN(CC)C(=O)CC[C@@H]1C/C(=N\O)[C@@]2(C)CCC3c4cccc(F)c4CCC3C12 (stereo partly shown) ? 1

Next molecule: C[C@]12CCC3c4ccc(Cl)cc4CCC3C1[C@H](CCC(=O)Nc1cnccn1)C/C2=N\O (stereo partly shown) -1

For C[C@]12CCC3c4cccc(F)c4CCC3C1[C@H](CCC(=O)Nc1ccc(C#N)cn1)C/C2=N\O (stereo partly shown) then? -1

COc1ccc(NC(=O)CC[C@@H]2C/C(=N\O)[C@@]3(C)CCC4c5cccc(F)c5CCC4C23)nn1 (stereo partly shown) ? 1

====

Field: Rabbit placenta inhibition % @100 nM. Provide a value for each of the compounds that follow.
- System: HSD1 enzyme that is expressed in rabbit placenta tissue
- Protocol Details: Inhibition of E1 to E2 conversion in rabbit placenta tissue homogenate
- Format: biochemical
- Measurement Conditions: inhibitor 100 nM, 30 nM estrone, 30 min
Give me the value, and tack the unit on after it.

Param item = C[C@]12CCC3c4cccc(F)c4CCC3C1[C@H](CCC(=O)N1CCOCC1)C/C2=N\O (stereo partly drawn) [Compound 136] ; retrieve measured Rabbit placenta inhibition % @100 nM. 18%

Repeat for the following compound: C[C@]12CCC3c4ccc(Cl)cc4CCC3C1[C@H](CCC(=O)Nc1ncc(F)cc1F)C/C2=N\O (stereo partly drawn) [Compound 164] 5%

Next: C[C@]12CCC3c4ccc(Cl)cc4CCC3C1[C@H](CCC(=O)Nc1ccc(F)cn1)C/C2=N\O (stereo partly drawn) [Compound 58] 1%

Would you mind doing C[C@]12CCC3c4cccc(F)c4CCC3C1[C@H](CCC(=O)NC1CCOCC1)C/C2=N\O (stereo partly drawn) [Compound 122] as well? 4%

What do we get for Cc1cc(NC(=O)CC[C@@H]2C/C(=N\O)[C@@]3(C)CCC4c5ccc(Cl)cc5CCC4C23)no1 (stereo partly drawn) [Compound 54] ? 10%

Next compound: C[C@]12CCC3c4cccc(F)c4CCC3C1[C@H](CCC(=O)Nc1ccc(N3CCOCC3)cn1)C/C2=N\O (stereo partly drawn) [Compound 114] 75%

Subsequent entry: Cc1ccnc(NC(=O)CC[C@@H]2C/C(=N\O)[C@@]3(C)CCC4c5ccccc5CCC4C23)c1 (stereo partly drawn) [Compound 88] 10%

Next compound up: C[C@]12CCC3c4ccccc4CCC3C1[C@H](CCC(=O)Nc1ccc(F)cn1)C/C2=N\O (stereo partly drawn) [Compound 98] 4%

Proceed to C[C@]12CCC3c4cccc(F)c4CCC3C1[C@H](CCC(=O)Nc1ccccn1)C/C2=N\O (stereo partly drawn) [Compound 138] 36%

Moving on to C[C@]12CCC3c4ccccc4CCC3C1[C@H](CCC(=O)Nc1cccc(F)n1)C/C2=N\O (stereo partly drawn) [Compound 168] 6%

Then what about the compound C[C@]12CCC3c4cccc(F)c4CCC3C1[C@H](CCC(=O)Nc1cccnn1)C/C2=N\O (stereo partly drawn) [Compound 20] ? 50%

Item: C[C@]12CCC3c4ccc(Cl)cc4CCC3C1[C@H](CCC(=O)NC1=NCCS1)C/C2=N\O (stereo partly drawn) [Compound 46] 50%

Similarly, Cc1cc(NC(=O)CC[C@@H]2C/C(=N\O)[C@@]3(C)CCC4c5ccc(F)cc5CCC4C23)no1 (stereo partly drawn) [Compound 134] ? 46%

Same thing, different compound: Cc1ccnc(NC(=O)CC[C@@H]2C/C(=N\O)[C@@]3(C)CCC4c5ccc(Cl)cc5CCC4C23)c1 (stereo partly drawn) [Compound 70] −7%

Queued: C[C@]12CCC3c4cccc(F)c4CCC3C1[C@H](CCC(=O)Nc1ccc(F)cn1)C/C2=N\O (stereo partly drawn) [Compound 8] 37%
